As shown below, each of these compounds has a reported pEC50 value.
study.system: GLP-1R (Homo sapiens)
Construct: host or cells: GLP-1R CRE-bla CHO-K1 cells
Sequence (P43220 24-463): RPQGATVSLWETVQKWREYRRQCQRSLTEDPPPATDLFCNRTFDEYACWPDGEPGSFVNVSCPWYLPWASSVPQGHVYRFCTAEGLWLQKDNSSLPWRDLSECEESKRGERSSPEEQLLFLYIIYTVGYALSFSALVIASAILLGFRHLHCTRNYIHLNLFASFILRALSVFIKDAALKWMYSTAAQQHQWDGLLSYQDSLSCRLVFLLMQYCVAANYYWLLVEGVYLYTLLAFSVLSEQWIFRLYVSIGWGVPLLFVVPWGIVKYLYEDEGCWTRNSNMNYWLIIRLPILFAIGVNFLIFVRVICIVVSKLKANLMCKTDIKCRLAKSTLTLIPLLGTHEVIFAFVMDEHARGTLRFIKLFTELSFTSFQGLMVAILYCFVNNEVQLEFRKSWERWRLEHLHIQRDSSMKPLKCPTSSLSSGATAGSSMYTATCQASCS
Sequence (P01275 100-127 partner limits assumed): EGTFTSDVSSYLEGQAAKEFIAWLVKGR
method.summary: EC20 GLP-1(9-36) PAM cAMP assay: dose response of compound in the presence of fixed concentration of GLP-1(9-36)
Format: cell-based
experimental.conditions: dose response of compound in presence of fixed concentration of GLP-1(9-36), GLP-1R CRE-bla CHO-K1 cells, read-out: EC20 GLP-1(9-36) PAM EC50
pEC50: −log10 of the molar value.

C[C@@H](NC(=O)[C@H](Cc1ccc(-c2ncc(-c3ccc(-c4ccc(C(F)(F)F)cc4)cc3F)cn2)cc1)NC(=O)c1ccc(C(C)(C)C)s1)C(=O)O
> 6.10
CCCCCCCOc1ccc(-c2cnc(-c3ccc(CC(NC(=O)c4ccc(C(C)(C)C)s4)C(=O)N[C@H](C(=O)O)[C@@H](C)CC)cc3)nc2)cc1 (stereo partly drawn)
> 6.10

Task: Can you share its pEC50? I mean this compound: CCCCCCCOc1ccc(-c2cnc(-c3ccc(C[C@H](NC(=O)c4cnc(C(C)(C)C)nc4)C(=O)N4CC[C@H](C(=O)O)C4)cc3)nc2)cc1
Output: 5.60 to 6.10
